Where no end group is shown, it is not given here.
List of pIC50 tested on Phytophthora infestans.
// field semantics: pIC50 = negative decimal log of concentration (mol/L)

Q. So what does the record say about pIC50 for MKIRASIRRISGKSRPIRRRKRVMIISSNPRHKQKQG [BL36] ?
A. 5.47

Q. Then MNSHRLPGKGRRMGPIMGHTMHYRRMIITLQSSYSIPPLRKKRT [SL23] ?
A. 5.11

Q. Then MAVPKKRTSISKKRIRKKIWKRKGYWTSLKAFSLGKSLSTGNSKSFFVQQNK [BL32] ?
A. 5.18
